tgt: T1, Monomeric monkey CD48-mmH (monkey)
T1 construct: Soluble monkey CD48 with a myc-myc-hexa-histidine C-terminal tag; the whole entry is the construct; also called mfCD48-mmH
T1 chain: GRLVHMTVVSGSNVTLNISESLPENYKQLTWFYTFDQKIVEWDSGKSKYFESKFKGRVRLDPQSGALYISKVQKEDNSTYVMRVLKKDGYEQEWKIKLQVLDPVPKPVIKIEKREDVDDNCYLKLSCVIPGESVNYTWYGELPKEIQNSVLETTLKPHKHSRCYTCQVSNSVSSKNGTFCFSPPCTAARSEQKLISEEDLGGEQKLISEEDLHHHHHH
method: SPR (Biacore), antibody captured by anti-Fc, CD48 in solution, 25 C
property: T½ (min)

binder	measurement_units	val
H4H1770P (antibody, human IgG4, V domains shown, Human IgG4 Fc (H4H)) VH: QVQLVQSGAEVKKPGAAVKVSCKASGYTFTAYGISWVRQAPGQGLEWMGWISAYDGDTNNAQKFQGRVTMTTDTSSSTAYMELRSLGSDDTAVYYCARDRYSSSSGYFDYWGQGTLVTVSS VL: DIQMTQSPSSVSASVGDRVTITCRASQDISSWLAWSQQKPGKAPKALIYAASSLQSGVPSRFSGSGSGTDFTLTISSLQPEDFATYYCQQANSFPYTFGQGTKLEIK	min	54
H4H1778P (antibody, human IgG4, V domains shown, Human IgG4 Fc (H4H)) VH: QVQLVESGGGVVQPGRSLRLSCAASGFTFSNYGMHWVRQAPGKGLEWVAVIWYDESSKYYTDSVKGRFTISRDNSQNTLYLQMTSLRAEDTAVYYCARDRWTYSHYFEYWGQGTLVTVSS VL: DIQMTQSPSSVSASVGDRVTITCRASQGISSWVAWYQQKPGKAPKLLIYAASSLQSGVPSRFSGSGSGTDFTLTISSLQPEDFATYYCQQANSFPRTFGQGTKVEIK	min	129
H4H1763N (antibody, V domains shown, Human IgG4 Fc (H4H)) VH: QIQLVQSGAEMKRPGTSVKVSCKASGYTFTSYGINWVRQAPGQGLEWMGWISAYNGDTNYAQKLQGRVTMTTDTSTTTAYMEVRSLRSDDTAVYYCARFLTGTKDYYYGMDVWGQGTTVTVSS VL: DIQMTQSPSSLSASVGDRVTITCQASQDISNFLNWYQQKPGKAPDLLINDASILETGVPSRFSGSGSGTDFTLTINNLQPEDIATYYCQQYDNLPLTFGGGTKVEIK	min	9
